- experiment: soluble fraction after stress (log2 fold change); higher = more stays soluble; pooled small domains, quantitative proteomics
- test.parameters: stress: 50 degC
Note: every record was labeled by where its soluble fraction (log2) sits among bucket A (below -0.6), bucket B (-0.6 to below -0.2), bucket C (-0.2 or more)

Band for the recorded soluble fraction (log2) of `HMHTSEDLEKLLTRYFQSHESINRQQFEQLSGFTRTTASRRLKALVEAGKLKNIGLHHFPVYKPTEGNF` ?
bucket B

What about `HMNADAIIGRMGKVTEPITPDGYGRVEIDGDSWKATAVGGVAIAEGTRVSVVSLDSIIITVKTV` ?
bucket B

Same lookup for `HMTIHVMEIKSLLPIKILDESQHLVQSFSSKNPTSYNYRLIFSDKSKLENIKKTINENKDVESIEIRYA` , please.
bucket A

`HMDFKKKIIESWADIAETLRGLTVDSNISDWTTKQKNAYETLADKAELAGLSIADLNSILVELGYM` , same question.
bucket C

// next record `HMRRLGTTEIAGILRREISQGILIAKERLPSERSLADTYGVARGTVRQALNLLAREGLVQIRRSSGAYVTF`
bucket B

// same read-out, input: `HMALSTRERMSFVLEVLKEKEFIPFVDLFSPEEGRAGVVVTFLALMELMKDSLIEIVQTKNFGEIHVRARL`
bucket B

Queued: `HMAPETALQILEQIQINPKVTMTDLANLTGYSRRWVAQTMKQLQELNVIKRVGSTKTGYWEIIA`
bucket C

Repeat for the following sequence: `HMQEPVHFTRRERQVLSLILSGQATAEIAKTLGIANATVTTYKKSLYSKSGTNSLSRLLIWAMVRR`
bucket B

Input `HMDAVTPVLSRIRDARFKRMVLPGDEIEISVTLIDTIGKFFNLSGQIRNKDKISLTVNFALALV`
bucket C

Same read-out for `HMPETAQLTDIQVSRSQAHTGIFSLHYYLTGTDSRGERVRLEISGDDYTRLSGSSSVTVEYYRHTGRIVRY` ?
bucket A

Queued: `HMQEPVYRPVFPGMTDADRQSAMEALKEGGFSPRLNRQTGQLEVDASGYHEAKIYLASQGIPAE`
bucket C

Then what about the sequence `HMTGSALDATIEKLLDLGSKAGSVTEDEIQIVLKNVDVTDAQLSSIYQFLRDRGVEIVSATEDDD` ?
bucket C

Moving on to the next sequence: `HMEMTDKEEELMRIFWNHGPMFVREIVELYPEPRPHFNTLSTFVRNLEQKGFVSHEAVGGSFRYYAV`
bucket A

Note, next up: `HMLPQYELIKQYLRHQIETGEWPIGYRTPSEPKLAEQFSVSRMTARRALQELADQGLLSRTAGSGTFVAKP`
bucket B

Proceed to `HMKDMWNRIRRARLSAGLSQAALAKETGVRRSAVTQWEKEGGTSPSVANLARIAVVTQVHFEWLATGRGPG`
bucket A

Would you kindly repeat that for `HMKRLLLPGDLAGVRRHLLDRENSFHILRVLRLARGSTIEAMDDAGNRFSATLAGVKAGRALFDLAAKI` ?
bucket A

----------
- experiment: soluble fraction after stress (log2 fold change); higher = more stays soluble; pooled small domains, quantitative proteomics
- test.parameters: stress: 50 degC
Please respond with reported soluble fraction (log2) for every item in the list.

Requested field: soluble fraction (log2). Item: `HMDEKLAHKLVSDFRQAAASLERFPFRNPVLRSEVFTVEKYRKLVFDKYHILLYQVKDQVVYVEYVIDGRQ`
-0.75

For `HMAIDLPVTTVNGKDYYYYDVQPKETIFSLSQRLGISREEIISYNPGVDGGLKAYTRLYFPVESGL` then?
-0.201

Next entry: `HMISKWGELVDLAVQLDIIQKSGSWFSMGDERIGQGANSVKDYLIANPDIAEKVEAEVRENLWKLN`
-0.129

Query `HMEEFIEHTVEKGEFLSAIIVAYNQHLKSKGFKSITTRDILNANPKLKPELIQVGQKIKIPRRKK` next
0.29

`HMQSFIEELLPVVDNFERSLAVVDPSDEIKNFLKGYEMIYNQLMEVLKSQGVEVIKTEGEEFDPNFHQA` ?
0.0366

Also need `HMRLDHIFSVVERLKGVSLGAGDRLEVQKYEDLLTVYKSKNALSSEEAQTLNDILASLLKMMAKYD` , thanks.
-0.00461

Same read-out for `HMASMEDILAEAKTKFQEGDLFKSVNEGIQGTHKLTLPLRIKESRIVDASGAAVYREGIWATVDK` ?
0.108

// query: `HMEAKQMDAWIVSEAKRQGGKIEPAAAYELSRHTATDTSIASQEIAKLLMYVDFKRPVTREDVVELVSA`
0.176

----------
- experiment: soluble fraction after stress (log2 fold change); higher = more stays soluble; pooled small domains, quantitative proteomics
- test.parameters: stress: 50 degC
# binarize soluble fraction (log2): threshold 0.05 inclusive, high side class 1, low side class 0

Does the sequence `HMEDIASESVKRVIRKIIDDEDKKSPLSDQAIVEILAKGEGIVIARRTVAKYREMMGILPSSKRKKH` have recorded soluble fraction (log2) that is 0.05 or more?
class 0

And the next one, `HMVEPTDFTYLKAEVETAKALKQADYTVATWKSFAGELAEAEEVIAKTDASQAEVNEALSHLQAAEKELV` ?
class 1

Next: `HMFTEIMAERNALIQAIQQNLPPQHIQSILSKKNKFRLEDLTNEELRDVWQWILNQRQAQQHQQQ`
class 0

Subsequent entry: `HMYGQEVKVLGLFGDRAFIKVDEKSAVIRIGQSHQNVQLKSISNQKAILLVDNKDIALGLGDSYQSA`
class 0

Try this sequence too: `HMLPDSQLMKEATAWFMRQAADDFSGAERRRLDAWRAQSPAHARAYHQVQALWNAPELQQAAAR`
class 0

Next sequence: `HMRLLAESIARGLDPEGSGGLWAKEAGAEALKLMETLAAEAPHGGSFTAAAYRDLFESLVHQGEVREA`
class 0

Subsequent entry: `HMGDAPLITVDKRTIKVNGAKAQIQVYDTTGRLVKNVSPAGKLTLIEMAKPGIFIVHTQSMSFKVVL`
class 0

Lookup `HMSEEELETSGLVKRSAKGNLYDIFRHRVMVPIIDVRGAIIAFGGRVLDDSKPKYINSPETMVY`
class 0

Here is the next sequence: `HMRQNPESFLNHKVKKNESLESLTKKYELTENEIIFYNPLIQKIGLKKRMILKIPIYNNQNLVTKSVD`
class 1

Then `HMPAVGGVVKGAVVSVGRNEVRLDIGGLAIGIIRGPELDKHVDLRIGDEVEATVITLDNEFGELELSL` ?
class 0

Field entry: `HMDFSNVNFSQVSDSELDLLMRRASAQGYTQFDLLKIARAQGLTQAEIEKLDKRFKSAETVAYVAENA`
class 1

Try the sequence `HMGGLENNLKQARNRVGLTQSELARQAGISRQAYSSLESGAANPSTEVALRLAQALSERVESLFYLPE`
class 0

Try this sequence too: `HMPANLTPDYFKAEQWYRSASTNEEKMLALEQMLAVMPKHKGTEHLQADLKRKLSQLKDASAQ`
class 1

// query: `HMTDYREILRLLSLGLSRTQIADSLNVSRTTVIHTLQRAVAQELDWQTAEGMSDRELVAKLFPV`
class 0

Subsequent entry: `HMHVLAVDEALHKLTELNELHAKIVEMRFFSGMTVQEVADELGVSKRKIESEWTMIKAWLRKELN`
class 0

Here is the next sequence: `HMEKGWYKLGQDSYYVDDDGKIHKGWLELDGKKYYFDQEGKMVTGTVNIDGKDYTFNEKGELYVS`
class 1

Then what about the sequence `HMADPLQLLEQQRQDYIQAVTEYLNSHPNAKPIWDVMKKDAGYGDMKLTDIPLGILKKLYITLT` ?
class 0

----------
- experiment: soluble fraction after stress (log2 fold change); higher = more stays soluble; pooled small domains, quantitative proteomics
- test.parameters: stress: 50 degC
Fulfilled means recorded soluble fraction (log2) is -0.6 or above; Not fulfilled means it is below -0.6.

Item `HMRDGHEQLQGVLSAIKFHQANFLIGVLDDGTTVKGNMLSPQVGLEYTFRGRRERHPRWGEQFAFMDYRV` with soluble fraction (log2) of -0.6 or above?
Not fulfilled

Continue with `HMLTRQRKQLLEYLSKHTDEQMTARQIADALTAESISISAVYRNLSALEEEGILKRSIRENTREVYYQYIA`
Not fulfilled

Request: `HMQNREQNILDGKSILDKELKRVGLLNQSAAIMAQEMKFNSQDDLFAALGSGATRIGQIINHLQKQS`
Fulfilled

Do the same for `HMRASVTYVVQVNGKLRGKLEVAPDIDPEELKKLALEVENVKHSLQGWTVKKVIVIPGKMVSIAAGK` please
Fulfilled

Continue with `HMKSPVKLILRGSIYHIKISAVVNGQRIFVRESSHTTDKREAEQYANKRFAQLVEETEFRTN`
Not fulfilled

Next: `HMQRDELRYDQFLTALQNKEFTQLNVRFDDYTYLVTGTFQSGRPFSTRGPVSEEFIRLIESSGVQVTWLPM`
Fulfilled

Please answer likewise for `HMSNYLKSVEVFDPITNKWSYVSAMKVRRGYVAVVATMDRLYAIGGYDGENYLSTVEMYNPDTN`
Fulfilled

Same question, `HMLPDLQKAIDTFLYEVDSRINTSFEELIDKLNSKEEAVAFFLALLEAVRWGFIKAEQESNSINIKK` this time
Fulfilled

These measurements were taken from the domain aggregation screens of Martell et al. (2025).
